Hi there, I'd appreciate the recorded Phage binding ELISA, Anti-CD28 Fab signal for every entry that follows.
- system.under.test: T1, Anti-CD28 Fab (SEQ ID NOs: 696, 697)
- T1 construct: Biotinylated and captured on neutravidin coated plates in the phage ELISA
- method: phage ELISA; biotinylated anti-CD28 Fab on neutravidin plate, clonal phage supernatant, anti-M13 HRP
One number for each entry.

Study these solved cases before continuing.
YCEGHAAEYMAKCL (tested as crude clonal phage supernatant) [Phage-515]
2.38
YCDGHLPEYQEKCL (tested as crude clonal phage supernatant) [Phage-523]
2.37
YCAGHMPEYMAKCL (tested as crude clonal phage supernatant) [Phage-517]
2.38
YCDGHSWEYIGKCL (tested as crude clonal phage supernatant) [Phage-522]
2.37
YCEGHTAEYMQKCL (tested as crude clonal phage supernatant) [Phage-519]
2.38

List Phage binding ELISA, Anti-CD28 Fab signal for every entry below, keeping the order given.
1. YCDGHLPEYLAKCL (tested as crude clonal phage supernatant) [Phage-516]
2. YCDGHLPIYMSQCL (tested as crude clonal phage supernatant) [Phage-525]
3. YCDGHAPEYMMKCL (tested as crude clonal phage supernatant) [Phage-513]
4. YCAGHLPQYMSKCL (tested as crude clonal phage supernatant) [Phage-524]
5. YCMGHAPEYMAKCL (tested as crude clonal phage supernatant) [Phage-520]

result:
2.38
2.36
2.39
2.37
2.38

Measured values drawn from patent US20260242478A1 for this set.
